Target: UniProt P37288
Sequence (P37288 whole entry): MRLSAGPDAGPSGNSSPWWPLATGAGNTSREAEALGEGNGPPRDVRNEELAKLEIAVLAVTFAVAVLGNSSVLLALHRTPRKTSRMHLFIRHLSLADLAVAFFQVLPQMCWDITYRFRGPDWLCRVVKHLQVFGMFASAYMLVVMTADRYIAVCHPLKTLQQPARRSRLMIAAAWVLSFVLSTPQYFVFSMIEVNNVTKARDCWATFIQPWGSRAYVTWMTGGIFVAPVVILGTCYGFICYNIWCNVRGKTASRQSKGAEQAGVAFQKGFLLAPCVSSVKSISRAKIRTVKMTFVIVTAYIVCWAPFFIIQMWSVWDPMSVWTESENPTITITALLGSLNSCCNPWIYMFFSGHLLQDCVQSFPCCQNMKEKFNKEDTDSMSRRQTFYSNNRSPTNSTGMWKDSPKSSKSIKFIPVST
Experiment: Cellular in vitro assay for determining vasopressin receptor activity, V1a receptor cell line (CHO, aequorin luminescence)
Conditions: CHO cell line transfected with human V1a receptor; [Arg]-vasopressin at EC50 concentration; read-out: IC50 hV1a
pIC50: −log10 of the molar value.
ENDPOINT NAME: pIC50

Guide cases for pIC50, answers given:
COMPOUND	ASSAYED TARGET	pIC50
CC1CC(C)CN(C(=O)c2ccccc2-n2cnc(Cn3nc(-c4ccc(Cl)cc4)n(C[C@H](O)C(F)(F)F)c3=O)n2)C1 (mixture of isomers)	UniProt P37288	8.08
Cc1cccc(C(=O)Nc2ncccc2-n2cnc(Cn3nc(-c4ccc(Cl)cc4)n(C[C@H](O)C(F)(F)F)c3=O)n2)n1	UniProt P37288	8.25

[I] O=C(Nc1cccnc1-n1cnc(Cn2nc(-c3ccc(Cl)cc3)n(C[C@H](O)C(F)(F)F)c2=O)n1)C1CC1F (single isomer, unassigned) [Example 61]
[II] O=C(NC1CC1)c1cccc(C(F)(F)F)c1-n1cnc(Cn2nc(-c3ccc(Cl)cc3)n(C[C@H](O)C(F)(F)F)c2=O)n1
[III] O=C(NC1CC1(F)F)c1cccc(Cl)c1-n1cnc(Cn2nc(-c3ccc(Cl)cc3)n(C[C@H](O)C(F)(F)F)c2=O)n1 (mixture of isomers)
[IV] O=C(Nc1ncccc1-n1cnc(Cn2nc(-c3ccc(Cl)cc3)n(C[C@H](O)C(F)(F)F)c2=O)n1)c1cnccn1
Order the records by pIC50, with each subsequent value no larger than the one before. Arrange the labels as the request states and list them.
I, IV, III, II

FYI, the data here is from patent US11173151B2.
